The measured values listed here are drawn from PubChem BioAssay (NCI).

# Tested on: K-562 leukemia
# experiment.description: NCI tumour cell line growth inhibition, 48 h; in the data active = GI50 below about 0.43 µM; inactive = the rest
The reply should name one outcome from active, inactive

// known answers, use as guide
- COc1cnc2c(c1)C(=O)c1c-2n(CCCN2CCN(C)CC2)c(=O)c2cc(Cl)ccc12: inactive
- Cc1ccc2sc3c(NCCCNCCO)nc4ccccc4c3c(=O)c2c1: inactive
- CN(C)CC1CCn2c(c(C3=C(c4cn(C)c5ccccc45)C(=O)NC3=O)c3ccccc32)C1 (stereo not given): inactive
- COc1ccc(F)cc1C(=O)c1cnc(NC2CCN(S(C)(=O)=O)CC2)nc1N: inactive
- CCN(CC)CCOc1cc2c(C(=O)OC)c(C)oc2cc1C(C)=O: inactive
- O=C1/C(=C/c2ccc(Cl)cc2)CN(C(=O)C(Cl)Cl)C/C1=C\c1ccc(Cl)cc1: active
- COc1cc(C(=O)n2nc(N3CCN(C)CC3)c3cc(N)ccc32)cc(OC)c1OC: inactive
- COc1ccc2c(c1)Cc1c-2c(NN)nc2ccccc12: inactive

Lookup: For this compound, state the assay outcome: Cc1ccc(S(=O)(=O)n2cc(C(=O)C(=O)Nc3ccncc3)c3ccccc32)cc1
Found: inactive

Lookup: For this compound, state the assay outcome: Cc1ccc(NC(=O)c2ccnc(N3CCCC3)c2)cc1-c1ccc(C(=O)NCC2CC2)cc1
Found: inactive

* * *

# Test system: M14 melanoma
# experiment.description: NCI tumour cell line growth inhibition, 48 h
Recorded TGI by entry
Report the value in µM with no unit label.

* COC(=O)[C@@H](C)C[C@H](Cc1ccccc1)NC(=O)c1csc([C@@H](C[C@H](C(C)C)N(C)C(=O)[C@@H](NC(=O)[C@H]2CCCCN2C)C(C)C)OC(C)=O)n1 | 0.000531
* O=C(Nc1ccc(Br)c(Cl)c1)c1cc(F)ccc1O | 3.1

Continue with the next molecule.
Lookup: May I ask what TGI has been recorded for COc1ccc(-c2nc(-c3nc4cc(C)c(C)cc4[nH]3)cc3c2[nH]c2ccccc23)cc1 ?
Found: 24.8

* * *

# Tested on: SK-MEL-5 melanoma
# experiment.description: NCI tumour cell line growth inhibition, 48 h
Recorded TGI split into classes A: < 30 µM; B: ≥ 30 µM and < 50 µM; C: ≥ 50 µM

• CCOC(=O)c1c(-c2ccccc2)[nH]c2ccc(Cl)cc2c1=O = C
• COC(=O)C(=O)C(C(=O)C(=O)Nc1cc([N+](=O)[O-])ccc1[N+](=O)[O-])c1nc2ccc(C(=O)c3ccccc3)cc2[nH]c1=O (stereo not given) = B
• O=C(Nc1ccc(Br)c(Cl)c1)c1cc(F)ccc1O = A
• Cc1ccc(S(=O)(=O)n2cc(C(=O)C(=O)Nc3ccncc3)c3ccccc32)cc1 = A

Now look at this entry.
Lookup: Into which category would you place CCN(CC)c1ccc2c(c1)N=C1N=CC=CN1C2(c1ccc(N(C)C)cc1)c1ccc(N(C)C)cc1 ?
Found: A

* * *

Recorded TGI by entry
# Test system: LOX IMVI melanoma
# experiment.description: NCI tumour cell line growth inhibition, 48 h

- Clc1ccc(CO/N=C(\Cn2ccnc2)c2ccc(Cl)cc2Cl)c(Cl)c1: 3.21 µM
- CNC(=S)NNC1=NCCCCN1: > 100 µM
- CCOC(=O)/C(=C\NC(C)(C)C)c1nc2ccccc2o1: 65.4 µM

Lookup: May I ask what TGI has been recorded for COc1ccc(N2C(=O)/C(=C\c3cc(OC)c(OC)c(OC)c3)S(=O)(=O)C2c2ccccc2)cc1 (centres undefined) ?
Found: > 100 µM

Lookup: May I ask what TGI has been recorded for CC1(C)N=C(N)N=C(N)N1c1cccc(OCc2cccc([N+](=O)[O-])c2)c1 ?
Found: > 100 µM

Lookup: May I ask what TGI has been recorded for O=C(Nc1ccc(Br)c(Cl)c1)c1cc(F)ccc1O ?
Found: 3.04 µM

Lookup: May I ask what TGI has been recorded for COc1ccccc1N1C(=O)/C(=C\c2cc(OC)c(OC)c(OC)c2)S(=O)(=O)C1c1ccccc1 (centres undefined) ?
Found: > 100 µM

Lookup: May I ask what TGI has been recorded for CC[C@H](C)C(=O)O[C@H]1CCC=C2C=C[C@H](C)C(CCC3C[C@@H](O)CC(=O)O3)[C@H]21 (some centres undefined) ?
Found: > 100 µM

* * *

# System: KM12 colon
# experiment.description: NCI tumour cell line growth inhibition, 48 h
readout.type: TGI

Here's what some known entries look like.
* Cc1nc2ccc(N=NN(C)C)cc2[nH]1 | > 100 µM
* C[C@@H]1OC2(O)[C@@H]3CCCN3C(=O)N(Cc3ccccc3)N2C1=O (stereo partly drawn) | > 100 µM
* CC1(C)N=C(N)N=C(N)N1c1cccc(OCc2cccc([N+](=O)[O-])c2)c1 | > 100 µM
* COc1ccc2c(c1)/C(=C\c1cccc(/C=C3/C(=O)Nc4ccc(OC)cc43)n1)C(=O)N2 | 4.64 µM
* COC(=O)C(=O)C(C(=O)C(=O)Nc1cc([N+](=O)[O-])ccc1[N+](=O)[O-])c1nc2ccc(C(=O)c3ccccc3)cc2[nH]c1=O (stereo not drawn) | > 100 µM
* CC(CCC(=O)O)[C@H]1CCC2[C@H]3C(CC(=O)[C@@]21C)[C@@]1(C)CCC(O)C[C@H]1C[C@@H]3O (stereo partly drawn) | > 100 µM

Lookup: May I ask what TGI has been recorded for COC(=O)[C@]12CSC[C@H]1C[C@H](c1ccc(N(C)C)cc1)N2 ?
Found: > 100 µM

Lookup: May I ask what TGI has been recorded for CN(C)CC1CCn2c(c(C3=C(c4cn(C)c5ccccc45)C(=O)NC3=O)c3ccccc32)C1 (stereo not drawn) ?
Found: 8.26 µM

* * *

# Tested on: HOP-62 NSCLC
# experiment.description: NCI tumour cell line growth inhibition, 48 h
readout.type: TGI (µM)
Report the value in µM with no unit label.

- COc1cnc2c(c1)C(=O)c1c-2n(CCCN2CCN(C)CC2)c(=O)c2cc(Cl)ccc12: 36
- CCCCCCCCCCCCCCCCOCCCOP(=O)(O)C1CCCN(O)C1=O (stereo not given): 18.6
- Cc1cccc(N=C2c3cc([N+](=O)[O-])ccc3-c3c2cc([N+](=O)[O-])cc3[N+](=O)[O-])c1: 19.9

Lookup: May I ask what TGI has been recorded for COc1cc2c3c(c4cc(OC)c(OC)cc4c2cc1OC)[C@H](O)[C@@H]1CCCN1C3 ?
Found: 0.57

Lookup: May I ask what TGI has been recorded for NC(=O)NC(=O)c1ccc(NC(=O)CBr)cc1 ?
Found: 4.81

* * *

Recorded TGI by entry
# System: OVCAR-4 ovarian
# experiment.description: NCI tumour cell line growth inhibition, 48 h

Here's what some known entries look like.
• COc1cc2c3c(c4cc(OC)c(OC)cc4c2cc1OC)[C@H](O)[C@@H]1CCCN1C3 = 0.702 µM
• C#C[C@]1(O)CC[C@H]2[C@@H]3CCC4=C/C(=N\OCCN5CCCC5)CC[C@]4(C)[C@H]3CC[C@@]21C = > 62.1 µM
• Cc1cc(NCC2CC/C(=C\C=C\c3ccccc3)C2=O)no1 (stereo not given) = > 100 µM
• CC/C(=C(\CC)c1ccc(OCCN(CC)CC)cc1)c1ccc(OCCN(CC)CC)cc1 = 12.3 µM
• COc1cc(C(=O)n2nc(N3CCN(C)CC3)c3cc(N)ccc32)cc(OC)c1OC = > 100 µM

Lookup: Find TGI (OVCAR-4 ovarian) for the entry CC(C)(C)C(=O)Nc1cccc(-c2ccc[nH]2)n1
Found: > 100 µM

Lookup: Find TGI (OVCAR-4 ovarian) for the entry CN=S(=O)(C[C@]1(O)CC2OC1C1OC(C)(C)OC21)c1ccccc1 (stereo not given in full)
Found: > 100 µM

Lookup: Find TGI (OVCAR-4 ovarian) for the entry Nc1c(Cl)c([N+](=O)[O-])cc2c1OCCCCO2
Found: > 100 µM

Lookup: Find TGI (OVCAR-4 ovarian) for the entry Nc1nccc(Nc2ccc(S(N)(=O)=O)cc2)n1
Found: > 100 µM

* * *

Recorded TGI by entry
# System: MALME-3M melanoma
# experiment.description: NCI tumour cell line growth inhibition, 48 h

Here's what some known entries look like.
* Nc1ccc(C(=O)NN2C(=O)C(Cl)C2c2ccccc2O)cc1 (stereo unspecified) | > 100 µM
* O=C1c2ccccc2C(=O)c2c(O)c(O)cc(O)c21 | > 100 µM

Lookup: May I ask what TGI has been recorded for N#CC1=C(N2CCOCC2)CCC1 ?
Found: > 100 µM

Lookup: May I ask what TGI has been recorded for Cc1cccc(N=C2c3cc([N+](=O)[O-])ccc3-c3c2cc([N+](=O)[O-])cc3[N+](=O)[O-])c1 ?
Found: 21.2 µM

Lookup: May I ask what TGI has been recorded for C/C(=C\COP(=O)(O)OP(=O)(O)O)CC/C=C(\C)CNc1ccc([N+](=O)[O-])cc1 ?
Found: > 100 µM

Lookup: May I ask what TGI has been recorded for C/C(=C\c1c[nH]c2ccccc12)[N+](=O)[O-] ?
Found: 7.85 µM
